Every entry's value here was drawn from the ASAP Discovery antiviral challenge data (2025).

Please note: logD exactly at 3 is false. Only values below 3 get true.

CC(C)[C@H](Nc1ncnc2[nH]c(-c3cnn(C)c3C#N)cc12)c1ccc2c(c1)S(=O)(=O)CCC2 (racemic) ... false
Cc1cc([C@H](Nc2ccc3c(c2)CNC3)C(=O)NCC(F)F)cc(C(F)(F)F)c1 (racemic) ... true
CCOc1cccc(-c2ccc(S(=O)(=O)Nc3ccc(Cl)cc3C(=O)O)cc2)c1 ... true
CC(C)[C@H](Nc1ncnc2[nH]c(-c3cnn(CC(N)=O)c3)cc12)c1ccc2c(c1)OCCO2 (single isomer, unassigned) ... true
CCCCNC(=O)[C@H](Nc1ccc2c(c1)CNC2)c1cc(Cl)cc(C2CC2)c1 (racemic) ... true
O=C(Nc1cccc2c(C(=O)N[C@H]3c4ccccc4C[C@H]3C(=O)O)c[nH]c12)NC1CC1 (racemic) ... true
NCc1cccc(NC(=O)[C@H](NC(=O)OCc2ccccc2)C(C2CCC2)C2CCC2)c1 (racemic) ... true
NCc1cccc(NC(=O)c2cc(Cl)cc(NC(=O)OCc3ccccc3)c2)c1 ... true
O=C(O)c1cc(Cl)ccc1S(=O)(=O)NC1CCN(c2nc(C3CC3)cc(C(F)(F)F)n2)CC1 ... true
O=C(NCC(F)F)[C@H](Nc1ccc2c(c1)CNC2)c1cc(Cl)cc(C2CC2)c1 (racemic) ... true
O=C(Nc1ccc2c(c1)CNC2)c1cc(F)cc(-c2cn[nH]c2)c1 ... true
O=C(Nc1cc(Cl)cc(C(=O)Nc2cccc(-n3nn[nH]c3=O)c2)c1)OCc1ccccc1 ... false
N#Cc1cccc(-c2nc3c(C(=O)Nc4ccc5c(c4)CNC5)cc(F)cc3[nH]2)c1 ... true
CCNC(=O)c1cc2c(N[C@H](c3ccc4c(c3)S(=O)(=O)NCC4)C(C)C)ncnc2[nH]1 (racemic) ... true
COc1ccc(C(=O)Nc2cccc(/C=C3/C(=O)NC(=O)c4ccccc43)c2)cc1 ... false
CC[C@H](Cc1nnn[nH]1)c1ccc(NC(=O)c2cc(Cl)cc(NC(=O)OCc3ccccc3)c2)cc1 (racemic) ... false
